Data provenance: patent EP0433163A2

- EXPERIMENTAL SYSTEM: récepteurs de benzodiazépine
- ASSAY PROCEDURE: Benzodiazepine receptor binding (FRB), method of GB 2 128 989
- EXPERIMENTAL CONTEXT: in vitro benzodiazepine receptor binding; type of value not stated; read-out: FRBnM
Category | rule: reported IC50 within range, see low value: < 30 nM; medium value: ≥ 30 nM and < 600 nM; high value: ≥ 600 nM

Here's what some known entries look like.
{"columns": ["COMPOUND", "EXPERIMENTAL SYSTEM", "GROUP LABEL"],
 "data": [
  ["CN1Cc2c(C(=O)C3CC3)ncn2-c2cccc(F)c2C1=O [EXEMPLE 3D]", "récepteurs de benzodiazépine", "low value"],
  ["CN1Cc2c(C(=O)C3CC3)ncn2-c2cccc(C(F)(F)F)c2C1=O [EXEMPLE 3C]", "récepteurs de benzodiazépine", "low value"],
  ["CCOC(OCC)c1ncn2c1CN(C)C(=O)c1c(Cl)cccc1-2 [EXEMPLE 5]", "récepteurs de benzodiazépine", "medium value"],
  ["CCOC(=O)c1ncn2c1CN(C)C(=O)c1cccc(F)c1-2 [EXEMPLE 1D]", "récepteurs de benzodiazépine", "medium value"],
  ["CN1Cc2c(C(=O)C3CC3)ncn2-c2cccc(Cl)c2C1=O [EXEMPLE 3B]", "récepteurs de benzodiazépine", "low value"],
  ["CCOC(=O)c1ncn2c1CN(C)C(=O)c1c(F)ccc(F)c1-2 [EXEMPLE 1E]", "récepteurs de benzodiazépine", "medium value"],
  ["CCOC(=O)c1ncn2c1CN(C)C(=O)c1c(F)c(F)c(F)c(F)c1-2 [EXEMPLE 1G]", "récepteurs de benzodiazépine", "high value"]
]}

Let's switch to this compound now.
Please classify: CCOC(=O)c1ncn2c1CN(C)C(=O)c1cccc(N)c1-2 [EXEMPLE 6] high value
